pIC50 reference
- System: GST-RIPK1 (recombinant GST-RIPK1 kinase domain (residues 1-327)) (Homo sapiens, UniProt Q13546)
- Construct: recombinant GST-RIPK1 kinase domain (residues 1-327) enzyme
- Sequence (Q13546 1-327): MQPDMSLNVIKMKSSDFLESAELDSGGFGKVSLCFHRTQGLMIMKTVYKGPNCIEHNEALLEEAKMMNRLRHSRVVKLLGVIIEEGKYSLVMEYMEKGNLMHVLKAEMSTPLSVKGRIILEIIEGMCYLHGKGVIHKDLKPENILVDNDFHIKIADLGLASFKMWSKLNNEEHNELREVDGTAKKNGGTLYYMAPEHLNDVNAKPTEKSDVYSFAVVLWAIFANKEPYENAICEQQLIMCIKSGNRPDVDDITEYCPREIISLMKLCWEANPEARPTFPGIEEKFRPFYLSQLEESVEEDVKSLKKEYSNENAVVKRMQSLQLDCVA
- Assay notes: RIPK1-ADP-Glo enzymatic assay
- Condition notes: 25 nM GST-RIPK1, 300 μM ATP, 3 μM dephosphorylated-MBP; 30 minutes pre-incubation, 150 minutes reaction; ten-point titration
Reminder that pIC50 means the negative base-10 logarithm of the concentration expressed in mol/L.

molecule="COC(C)(C)C(=O)N1C[C@@H]2C[C@H]1c1cncc(C#N)c1O2 [Compound 1-24]" property_label=pIC50 reported=6.54

**Query** Give a short answer stating reported pIC50 for CN(C)C1(C(=O)N2C[C@@H]3C[C@H]2c2cncc(C#N)c2O3)CCC1 [Compound 1-91] .
**Result** 7.19

**Query** Give a short answer stating reported pIC50 for CC(C)(C(=O)N1C[C@@H]2C[C@H]1c1cncc(C#CCn3nnc4ccccc43)c1O2)C(F)F [Compound 2-40] .
**Result** 6.85
